experiment: Viability of HeLa cells after peptide incubation; assay type: cell-based; conditions: human, 15 μM, read-out: cells remained viable
Where a SMILES comes first, the peptide text is derived from it. The star is where a group is joined. FITC = O=C1OC2(c3ccc(O)cc3Oc3cc(O)ccc32)c2ccc(NC(=S)*)cc21
Quantity Name: viability at 15 µM (%)
Note: unit % is implicit; provide only the numeric part.

Returns the measured viability at 15 µM for the input compound. Input: C[C@H](NC(=O)[C@H](CCCNC(=N)N)NC(=O)[C@H](CCCCN)NC(=O)[C@H](CCCNC(=N)N)NC(=O)[C@H](CCCNC(=N)N)NC(=O)[C@@H]1CCCN1C(=O)[C@H](CCCNC(=N)N)NC(=O)[C@H](CCCCN)NC(=S)Nc1ccc2c(c1)C(=O)OC21c2ccc(O)cc2Oc2cc(O)ccc21)C(=O)N[C@@H](CCCNC(=N)N)C(=O)NCC(=O)N[C@@H](CC(N)=O)C(=O)N[C@@H](CCCNC(=N)N)C(=O)N[C@@H](CCCNC(=N)N)C(=O)O [Vir, KRPRRKRARGNRR] ({FITC}-KRPRRKRARGNRR-OH; N-terminus and C-terminus assumed) 94

---

test: Viability of HeLa cells after peptide incubation; assay type: cell-based; conditions: human, 30 μM, read-out: cells remained viable
Where a SMILES comes first, the peptide text is derived from it. The star is where a group is joined. FITC = O=C1OC2(c3ccc(O)cc3Oc3cc(O)ccc32)c2ccc(NC(=S)*)cc21
Quantity Name: viability at 30 µM (%)
Note: unit % is implicit; provide only the numeric part.

Returns the measured viability at 30 µM for the input molecule. Input: C[C@H](NC(=O)[C@H](CCCNC(=N)N)NC(=O)[C@H](CCCCN)NC(=O)[C@H](CCCNC(=N)N)NC(=O)[C@H](CCCNC(=N)N)NC(=O)[C@@H]1CCCN1C(=O)[C@H](CCCNC(=N)N)NC(=O)[C@H](CCCCN)NC(=S)Nc1ccc2c(c1)C(=O)OC21c2ccc(O)cc2Oc2cc(O)ccc21)C(=O)N[C@@H](CCCNC(=N)N)C(=O)NCC(=O)N[C@@H](CC(N)=O)C(=O)N[C@@H](CCCNC(=N)N)C(=O)N[C@@H](CCCNC(=N)N)C(=O)O [Vir, KRPRRKRARGNRR] ({FITC}-KRPRRKRARGNRR-OH; N-terminus and C-terminus assumed) 84

Every entry's value here was drawn from patent US11254944B2.
